# test summary: qHTS RealTime-Glo MT Cell Viability Assay in HEK293 cells - 8 hour (AID 1224887); also: nearly all actives have a fitted effect of over 50% in size
# experimental setup: RealTime-Glo luminescence; series mostly up to 76.8 µM
Inconclusive results are not listed. Activity calls are given as the source filed them. Calls follow the shape of the dose curve; as a rule, active = well fitted cell-killing curve with a large enough effect in the repeat runs; inconclusive = weak or mixed curves, or effect the other way; inactive = flat fitted curve, though single readings scatter.
Output constraint: value belongs to active, inactive

compound	classification
CC(C)OC(=O)C(O)(CC(=O)O)CC(=O)O	inactive
Cc1nc2n(c(=O)c1CCN1CCC(c3noc4cc(F)ccc34)CC1)CCCC2	active
O=c1oc2cc(O)ccc2c2oc3cc(O)ccc3c12	active
C=Cc1cccc(C)c1	inactive
Nc1cc(Cl)c(O)c(Cl)c1	active
CCc1oc2ccccc2c1C(=O)c1cc(I)c(O)c(I)c1	inactive
COc1cccc(OC)c1C(=O)O	inactive
CCCC(=O)OCOC(=O)C1=C(C)NC(C)=C(C(=O)OC)C1c1cccc(Cl)c1Cl (stereo unspecified)	inactive
CC(=O)c1ccc(C(C)=O)cc1	inactive
O=C(O)[C@H](O)[C@@H](O)[C@H](O[C@@H]1O[C@H](CO)[C@H](O)[C@H](O)[C@H]1O)[C@H](O)CO	inactive

Asked: Which result was noted for this compound in the test: CC[N+](CC)(CC)CCOC(=O)C(C1CCCC1)C1CCCC1
Given back: inactive

Asked: Which result was noted for this compound in the test: CCCc1ccc(OCC(=O)N2CCN(C(=O)COc3ccc(CCC)cc3OC)CC2)c(OC)c1
Given back: active

Asked: Which result was noted for this compound in the test: O=S(=O)(O)c1ccc(Nc2nc(Nc3ccc(/C=C/c4ccc(Nc5nc(Nc6ccc(S(=O)(=O)O)cc6)nc(N(CCO)CCO)n5)cc4S(=O)(=O)O)c(S(=O)(=O)O)c3)nc(N(CCO)CCO)n2)cc1
Given back: inactive

Asked: Which result was noted for this compound in the test: CCCC(=O)OCCc1ccccc1
Given back: inactive

Asked: Which result was noted for this compound in the test: CN1CCC[C@@H]1CCO[C@](C)(c1ccccc1)c1ccc(Cl)cc1
Given back: inactive

Asked: Which result was noted for this compound in the test: CCN1C(=O)c2ccccc2C1Nc1ccc(OCCN2CCCCC2)cc1 (stereo unspecified)
Given back: active

Asked: Which result was noted for this compound in the test: C=C(C)c1cccc(C(=C)C)c1
Given back: inactive

Asked: Which result was noted for this compound in the test: CC1(C)[C@@H](O)CC[C@]2(C)[C@H]3C(=O)C=C4[C@@H]5C[C@@](C)(C(=O)O)CC[C@]5(C)CC[C@@]4(C)[C@]3(C)CC[C@@H]12
Given back: inactive

Asked: Which result was noted for this compound in the test: O=C(O)c1cc(-c2ccc(F)cc2F)ccc1O
Given back: inactive

Asked: Which result was noted for this compound in the test: CCN(CC)c1ccc2c(-c3ccc(S(=O)(=O)O)cc3S(=O)(=O)[O-])c3ccc(=[N+](CC)CC)cc-3oc2c1
Given back: inactive

Asked: Which result was noted for this compound in the test: O=C1CCCCCCCCCCCCCCCO1
Given back: inactive

Asked: Which result was noted for this compound in the test: Cc1ccc(N/N=c2\c(=O)cc/c(=N\Nc3ccc(S(=O)(=O)O)cc3)c2=O)c(C)c1
Given back: inactive

Asked: Which result was noted for this compound in the test: CC(C)(C)C1CCC(=O)CC1
Given back: inactive

Asked: Which result was noted for this compound in the test: C#CC1(O)CC[C@H]2[C@@H]3CCC4=CCCC[C@@H]4[C@H]3CC[C@@]21C (stereo partly specified)
Given back: active

Asked: Which result was noted for this compound in the test: C=Cc1ccccc1C=C
Given back: inactive

Asked: Which result was noted for this compound in the test: Clc1ccnc(Cl)n1
Given back: inactive

Asked: Which result was noted for this compound in the test: CC(C(=O)O)c1ccc2c(c1)[nH]c1ccc(Cl)cc12 (stereo unspecified)
Given back: inactive

Asked: Which result was noted for this compound in the test: Nc1nc2c(ncn2COCCO)c(=O)[nH]1
Given back: inactive

Asked: Which result was noted for this compound in the test: Clc1sc(Cl)c(Cl)c1Cl
Given back: inactive

Asked: Which result was noted for this compound in the test: COc1cc(/C=C/c2ccccc2)oc(=O)c1
Given back: inactive

Asked: Which result was noted for this compound in the test: Cc1cccc2cccnc12
Given back: inactive

Asked: Which result was noted for this compound in the test: C1CCC(SSC2CCCCC2)CC1
Given back: inactive

Asked: Which result was noted for this compound in the test: COC(C)=O
Given back: inactive

Asked: Which result was noted for this compound in the test: CCCC1CCC(=O)CC1
Given back: inactive

Asked: Which result was noted for this compound in the test: CN(C)Cc1cc(C(C)(C)C)c(O)c(C(C)(C)C)c1
Given back: inactive
